Property: GI50; scope: individual compounds
# Tested on: UO-31 renal cancer cell line
# testDescription: NCI in vitro antiproliferative screen (SRB), UO-31
# Assay type: cell-based, human
# measurementConditions: Homo sapiens; UO-31, after 48 h
measuredParameter: GI50 (nM)

- CC(=O)O[C@H]1C(=O)[C@@]2(C)[C@H]([C@H](OC(=O)c3ccccc3)[C@]3(O)C[C@H](OC(=O)[C@H](O)[C@@H](NC(=O)c4ccccc4)c4ccccc4)C(C)=C1C3(C)C)[C@]1(OC(C)=O)CO[C@@H]1C[C@@H]2O [Paclitaxel, reference compound]: 1580
- CC(=O)O[C@H]1CC2C(C3CC[C@H](C(C)CCC(N)=O)[C@]31C)[C@H](OC(C)=O)C[C@@H]1CC3(CC[C@]21C)OOC1(CCC(c2ccccc2)CC1)OO3 (single isomer, unassigned): 360
- CC(=O)O[C@H]1CC2C(C3CC[C@H](C(C)CCC(=O)O)[C@]31C)[C@H](OC(C)=O)C[C@@H]1CC3(CC[C@]21C)OOC1(CCC(c2ccccc2)CC1)OO3 (single isomer, unassigned): 1830
- C[C@@H]1CC[C@H]2[C@@H](C)C(=O)O[C@@H]3O[C@@]4(C)CC[C@@H]1[C@]32OO4 [Artemisinin, reference compound]: 79400
